Test system: IL-1β secretion, THP-1 cells
Method: IL-1β secretion assay in PMA-differentiated THP-1 cells (LPS + nigericin stimulation, IL-1β ELISA)
Assay type: cell-based
Condition Description: class symbol, LPS 25 ng/mL, IL-1β by ELISA
Protocol: Compounds as provided herein were tested in the following assay. Cell culture medium employed contained RPMI 1640 medium (89%), FBS (10%), Pen/Strep (1%), and 2-mercaptoethanol (0.05 mm). Freezing medium was made up of 90% FBS and 10% DMSO. […] All media was carefully aspirated from each culture flask. […] These supernatant aliquots were analyzed using an IL-Iβ detection kit as described below. If needed, the test samples could be snap frozen and stored at −80° C. until analyzed. […]
Measurement Name: IC50

# lookup: IC50 of C[C@H]1C[C@@]12C(=O)N(CC(=O)Nc1ncc(F)cn1)C(=O)c1ccc(Br)cc12 (single isomer, unassigned)
< 10 µM
